Measured Activity of individual entries
# System: Tetranychus cinnabarinus
# MEASUREMENT_DESCRIPTION: Acaricidal activity against Tetranychus cinnabarinus (carmine spider mite) eggs at 200 mg/kg by leaf dip method
# Type: functional, Egg
PARAMETER: Activity (%)

COMPOUND: CCc1nn(C)c(C(=O)NC(CCl)c2ccc(C(C)(C)C)cc2)c1Cl (configuration not stated)
ASSAY_SYSTEM: Tetranychus cinnabarinus
PARAMETER: Activity
VALUE_UNITS: %
ASSAY_RESULT: 30

COMPOUND: CCCCCOc1ccc(C2COC(c3cc(CC)nn3C)=N2)cc1 (configuration not stated)
ASSAY_SYSTEM: Tetranychus cinnabarinus
PARAMETER: Activity
VALUE_UNITS: %
ASSAY_RESULT: 40

COMPOUND: CCc1nn(C)c(C(=O)NC(CO)c2ccc(C(C)(C)C)cc2)c1Cl (configuration not stated)
ASSAY_SYSTEM: Tetranychus cinnabarinus
PARAMETER: Activity
VALUE_UNITS: %
ASSAY_RESULT: 0

COMPOUND: CCc1cc(C(=O)NC(CCl)c2ccc(C(C)(C)C)cc2)n(C)n1 (configuration not stated)
ASSAY_SYSTEM: Tetranychus cinnabarinus
PARAMETER: Activity
VALUE_UNITS: %
ASSAY_RESULT: 40

COMPOUND: CCc1nn(C)c(C(=O)NC(CCl)c2ccc(Oc3ccccc3)cc2)c1Cl (configuration not stated)
ASSAY_SYSTEM: Tetranychus cinnabarinus
PARAMETER: Activity
VALUE_UNITS: %
ASSAY_RESULT: 0

COMPOUND: CCc1nn(C)c(C(=O)NCc2ccc(C(C)(C)C)cc2)c1Cl
ASSAY_SYSTEM: Tetranychus cinnabarinus
PARAMETER: Activity
VALUE_UNITS: %
ASSAY_RESULT: 100

COMPOUND: CCCCCOc1ccc(C(CCl)NC(=O)c2cc(CC)nn2C)cc1 (configuration not stated)
ASSAY_SYSTEM: Tetranychus cinnabarinus
PARAMETER: Activity
VALUE_UNITS: %
ASSAY_RESULT: 50

COMPOUND: CCc1cc(C(=O)NC(CO)c2ccc(Oc3ccccc3)cc2)n(C)n1 (configuration not stated)
ASSAY_SYSTEM: Tetranychus cinnabarinus
PARAMETER: Activity
VALUE_UNITS: %
ASSAY_RESULT: 0

COMPOUND: CCc1cc(C2=NC(c3ccc(Oc4ccccc4)cc3)CO2)n(C)n1 (configuration not stated)
ASSAY_SYSTEM: Tetranychus cinnabarinus
PARAMETER: Activity
VALUE_UNITS: %
ASSAY_RESULT: 50

COMPOUND: CCCCCOc1ccc(C(CCl)NC(=O)c2c(Cl)c(CC)nn2C)cc1 (configuration not stated)
ASSAY_SYSTEM: Tetranychus cinnabarinus
PARAMETER: Activity
VALUE_UNITS: %
ASSAY_RESULT: 0

COMPOUND: CCc1nn(C)c(C2=NC(c3ccc(Cl)cc3)CO2)c1Cl (configuration not stated)
ASSAY_SYSTEM: Tetranychus cinnabarinus
PARAMETER: Activity
VALUE_UNITS: %
ASSAY_RESULT: 0

COMPOUND: CCCCCOc1ccc(C2COC(c3c(Cl)c(CC)nn3C)=N2)cc1 (configuration not stated)
ASSAY_SYSTEM: Tetranychus cinnabarinus
PARAMETER: Activity
VALUE_UNITS: %
ASSAY_RESULT: 20
